Target: P2X7 receptor (Homo sapiens (Human))
Sequence (Q99572 whole entry): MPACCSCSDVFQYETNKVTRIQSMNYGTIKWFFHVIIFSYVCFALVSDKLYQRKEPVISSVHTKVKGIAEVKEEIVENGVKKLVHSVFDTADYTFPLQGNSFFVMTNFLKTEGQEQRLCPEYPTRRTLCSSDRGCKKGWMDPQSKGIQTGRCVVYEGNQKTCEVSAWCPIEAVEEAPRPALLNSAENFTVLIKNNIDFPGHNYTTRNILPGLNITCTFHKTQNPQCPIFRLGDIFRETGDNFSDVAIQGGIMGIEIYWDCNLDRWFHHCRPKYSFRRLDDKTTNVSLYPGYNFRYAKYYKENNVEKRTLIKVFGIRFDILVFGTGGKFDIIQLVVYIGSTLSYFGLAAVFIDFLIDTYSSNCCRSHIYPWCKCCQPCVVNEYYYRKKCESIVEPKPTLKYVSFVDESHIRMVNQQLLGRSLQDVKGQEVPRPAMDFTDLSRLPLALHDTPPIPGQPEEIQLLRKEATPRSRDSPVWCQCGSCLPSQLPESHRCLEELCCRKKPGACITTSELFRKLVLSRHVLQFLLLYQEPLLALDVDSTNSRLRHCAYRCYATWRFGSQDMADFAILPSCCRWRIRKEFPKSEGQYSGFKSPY
Experiment: human P2X7 channel assay by automated patch-clamp (QPatch 16X)
Format: cell-based
Conditions: HEK-293 cells expressing P2X7 channels, 100 microM BzATP, held at -80 mV, read-out: hP2X7 (IC50; nM)

Compound	IC50
Cc1ncoc1C(CNC(=O)c1ccc(-c2ncc(F)cn2)cc1Cl)N1CCc2ccccc2C1 (stereo not shown) [Compound 57]	71 nM
O=C(NCC(c1scnc1C(F)(F)F)N1CCC(F)(F)CC1)c1cc(-c2ncc(F)cn2)ccc1Cl (stereo not shown) [Compound 68]	63.1 nM
Cc1ncsc1C(CN(C)C(=O)c1cc(-c2ncc(F)cn2)ccc1Cl)N1CCC(F)(F)CC1 (stereo not shown) [Compound 77]	183 nM
Cc1cccc(-c2ccc(Cl)c(C(=O)NCC(c3scnc3C)N3CCC(F)(F)CC3)c2)n1 (stereo not shown) [Compound 74]	65.2 nM

====

Target: P2X7 receptor (Homo sapiens (Human))
Test: YO-PRO-1 Uptake Assay (large pore form, Bz-ATP stimulated)
Type: cell-based
Settings: HEK-293 cells stably transfected with P2X7 receptor; Bz-ATP EC80 (30 μM); 5 μM YO-PRO-1
Please assign Criterion not met whenever IC50 is at or above 80 nM, and Criterion met whenever it is below.

Molecule	Group label
Cc1ncsc1C(CNC(=O)c1c(F)cccc1Cl)N1CCC(OCc2ccccc2)CC1 (stereo not shown) [Compound 59]	Criterion met
Nc1ccc(Cl)c(C(=O)NCC(c2cncs2)N2CCC(F)(F)CC2)c1 (stereo not shown) [Compound 16]	Criterion not met
O=C(NCC(c1cnc(C2CC2)s1)N1CCC(F)(F)CC1)c1c(F)cccc1Cl (stereo not shown) [Compound 88]	Criterion met
O=C(NCC(c1cnco1)N1CCc2ccccc2C1)c1c(F)cccc1Cl (stereo not shown) [Compound 48]	Criterion not met
COc1cccc(C(=O)NCC(c2ocnc2C)N2CCOCC2)c1OC (stereo not shown) [Compound 53]	Criterion not met
Cc1cccc(C)c1C(=O)NCC(c1scnc1C)N1CCc2ccccc2C1 (stereo not shown) [Compound 30]	Criterion met
Cc1ncc(C(CNC(=O)c2c(F)cccc2Cl)N2CCC(F)(F)CC2)s1 (stereo not shown) [Compound 38]	Criterion met
Nc1ccc(Cl)c(C(=O)NCC(c2cncs2)N2CCOCC2)c1 (stereo not shown) [Compound 12]	Criterion not met
O=C(NCC(c1nccs1)N1CCC(F)(F)CC1)c1c(F)cccc1Cl (stereo not shown) [Compound 2]	Criterion not met
Cc1cccc(Cl)c1C(=O)NCC(c1scnc1C)N1CCOC(c2ccc(F)cc2F)C1 (stereo not shown) [Compound 101]	Criterion met
O=C(NCC(c1cncs1)N1CCC(Oc2ccccc2)CC1)c1c(F)cccc1Cl (stereo not shown) [Compound 27]	Criterion met
O=C(NCC(c1cnc(C2CCC2)s1)N1CCC(F)(F)CC1)c1c(F)cccc1Cl (stereo not shown) [Compound 110]	Criterion met
Cc1ncc(C(CNC(=O)c2c(C)cccc2C)N2CCC(F)(F)CC2)s1 (stereo not shown) [Compound 40]	Criterion met

====

Molecular target: UniProtKB Q99572
Assay: Screen Quest Fluo-8 No Wash Calcium Assay (Bz-ATP-induced Ca2+ influx, FLIPR TETRA)
Format: cell-based
Settings: HEK-293 cells stably transfected with P2X7 receptor, Fluo-8 calcium, Low Divalent Cation Assay Buffer
Measured metric: log10 of IC50 (log10 of the value in nM)

Molecule	Target desc	log10 of IC50
O=C(NCC(c1cncs1)N1CCC(Oc2ccccc2)CC1)c1c(F)cccc1Cl (stereo not drawn)	UniProtKB Q99572	1.80
O=C(NCC(c1cnco1)N1CCC(F)(F)CC1)c1cc(-c2ncc(F)cn2)ccc1Cl (stereo not drawn)	UniProtKB Q99572	1.63
Cc1ncsc1C(CNC(=O)c1cc(-c2ncc(F)cn2)ccc1Cl)N1CCOC(c2cnn(C)c2)C1 (stereo not drawn)	UniProtKB Q99572	2.14
Cc1ncsc1C(CNC(=O)c1cc(-c2ncc(F)cn2)ccc1Cl)N1CCC(F)(F)CC1C (stereo not drawn)	UniProtKB Q99572	2.27
Cc1ncsc1C(CNC(=O)c1cc(-c2ncc(F)cn2)ccc1F)N1CCOC2(CCC2)C1 (stereo not drawn)	UniProtKB Q99572	2.51
Cc1cccc(-c2ccc(Cl)c(C(=O)NCC(c3scnc3C)N3CCC(F)(F)CC3)c2)n1 (stereo not drawn)	UniProtKB Q99572	1.74
O=C(NCC(c1cnc(C(F)(F)F)s1)N1CCC(F)(F)CC1)c1c(F)cccc1Cl (stereo not drawn)	UniProtKB Q99572	1.58
Cc1ncc(C(CNC(=O)c2c(C)cccc2Cl)N2CCC(F)(F)CC2)s1 (stereo not drawn)	UniProtKB Q99572	1.45
COc1cccc(C(=O)NCC(c2ocnc2C)N2CCc3ccccc3C2)c1OC (stereo not drawn)	UniProtKB Q99572	2.17
O=C(NCC(c1cnc(CO)s1)N1CCC(F)(F)CC1)c1cc(-c2ncc(F)cn2)ccc1Cl (stereo not drawn)	UniProtKB Q99572	2.08
CCCc1ncc(C(CNC(=O)c2cccc3ncccc23)N2CCC(F)(F)CC2)s1 (stereo not drawn)	UniProtKB Q99572	2.30
Cc1ncsc1C(CNC(=O)c1c(F)cccc1Cl)N1CCOC(c2cnn(C)c2)C1 (stereo not drawn)	UniProtKB Q99572	2.23

The origin of these recorded values is patent US9718812B2.
